- Test system: IGROV1 ovarian
- measurement_description: NCI-60 one-dose screen, 48 h (100 = growth as untreated, 0 = no growth, -100 = all killed)
- condition_summary: 10 µM unless noted
About 83,000 compounds went through this panel and 20% of them were active in at least one assay; those are over-represented in the sample as a whole.
measurement_label: growth (%)
One number for each entry, in %.

Example compounds with recorded growth:
> print(dat)
                                   compound  test.value
1  CCC1S/C(=N\N=C(/C)c2ccc[nH]2)N(c2ccccc2)C1=O (centres undefined)       -48.7
2  CCCCCCCc1n(Cc2ccc3ccccc3c2)c2ccccc2[n+]1Cc1ccc2ccccc2c1       -67.5
3      O=C1CS/C(=N/c2nnc(-c3ccc(O)cc3)s2)N1         107
4  COc1ccc(-c2cc(-c3nnc(SCC(=O)Nc4ccc(/C(C)=N\O)cc4)n3-c3ccccc3)c3cc(OC)ccc3n2)cc1        39.6
5  CC(C)NS(=O)(=O)c1cccc(-c2ccc3c(=O)n(CCCN)c4c(c3c2)C(=O)c2ccccc2-4)c1         102
6  C#CC[C@@H]1C[C@]2(C)[C@H]3CC[C@@H]4[C@H]5[C@H](C(=C)C)CC[C@]5(C(=O)O)CC[C@@]4(C)[C@]3(C)CC[C@H]2C(C)(C)[C@H]1O        60.2

Dear colleague, could you please provide growth for the compounds listed below?
1. COc1ccc2[nH]c(-c3ccccc3)c(C=C(C#N)C#N)c2c1
2. CCOCc1nc2ccccc2c(=O)[nH]1
3. COC(=O)/C=C1\SC(=Nc2ccc(C(F)(F)F)cc2)N(CCc2c[nH]c3ccccc23)C1=O

Ans.
49.5
96.6
-66.1

Hey, just so you know, these numbers are from PubChem BioAssay (NCI).
